Hey, just so you know, these numbers are from the RNAGym collection of RNA variant scans (doi:10.1126/science.aae0568).

B1: tRNA (parent)
chain: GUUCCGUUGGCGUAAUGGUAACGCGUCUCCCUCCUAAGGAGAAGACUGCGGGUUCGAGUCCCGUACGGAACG

Variants of: B1
Assay: yeast fitness relative to wild type (ratio to wild type); higher = fitter; tRNA-Arg(CCU), competitive growth, 37 C, YPD
Variants at the floor of the assay were thinned out.
Consider the following variants; for each one, report its yeast fitness.
One number for each entry.

                    variant    val
0            A15C A42G C49A  0.605
1  A21G A42C A43U G56C C66U  0.598
2       C31U C33A G50A G68U  0.596
3  C22G C33A A36C A43G C55G  0.595
4                 U59A G67A  0.799

Parameters: items (list). Returns: yeast fitness for each item.
1. U2G G51C
2. C22G C61U
3. A45G A70G

[0.543, 0.841, 1.19]

Parameters: items (list). Returns: yeast fitness for each item.
1. U54G G67A
2. C5G G50C
3. A40G A57U A65G
4. U7G C22G
5. C34A A37C

0.637
0.701
0.531
0.726
0.713

Consider the variant C4U C22U and give its recorded yeast fitness.
0.76
